Readings of Cparent-Ratio Rep.1 for the listed compounds
- method description: Abiotic CYP (aCYP) oxidation, remaining parent compound (Cparent-Ratio)
- condition context: Table S11, measured simultaneously with bioassay
Just the number.

• CC(C)(c1ccc(O)c(-c2ccccc2)c1)c1ccc(O)c(-c2ccccc2)c1 [BPPH, 2,2-Bis(2-hydroxy-5-biphenylyl)propane] = 0.78

Fill in Cparent-Ratio Rep.1 for record Cc1ccc(S(=O)(=O)NC(=O)Nc2ccc(Cc3ccc(NC(=O)NS(=O)(=O)c4ccc(C)cc4)cc3)cc2)cc1 [BTUM]
0.23

Supply reported Cparent-Ratio Rep.1 belonging to this compound: CC(C)c1cc(C(C)(C)c2ccc(O)c(C(C)C)c2)ccc1O [BPG]
0.79

For Cc1cc(Cc2cc(C)c(O)c(C)c2)cc(C)c1O [TMBPF, Bis(3,5-dimethyl-4-hydroxyphenyl)methane] , write its Cparent-Ratio Rep.1.
0.29

Output measured Cparent-Ratio Rep.1 for this item: Cc1ccc(S(=O)(=O)NC(=O)Nc2cccc(OS(=O)(=O)c3ccc(C)cc3)c2)cc1 [Pergafast]
0.75

Respond only with Cparent-Ratio Rep.1 recorded for CC(C)(c1ccc(O)cc1)c1ccc(O)cc1 [BPA, 4,4'-(Propane-2,2-diyl)diphenol, reference compound]
0.90

Hello, the source for this data is paper PMC12392461, in case you need it.
